# MIC annotations
system: Aspergillus fumigatus AF293; test: MIC (YAG medium); assay type: cell-based; settings: Aspergillus fumigatus; YAG medium; MIC banded into grades; AF293; read-out: MIC A. fumigatus (grade)

Guide cases for MIC, answers given:
Cc1cc(C)nc(N(C)CCN(C)c2ccc(NC(=O)C(=O)c3c(-c4ccccc4)cc4ccccn34)cc2)c1 [Example 55] :: < 1 µg/mL
O=C(Nc1ccc(N2CCN(CC3CCOCC3)CC2)cc1)C(=O)c1c(-c2ccccc2)cc2ccc(F)cn12 [Example 53] :: 1 to 10 µg/mL
CCc1cccc(N2CCN(c3ccc(NC(=O)C(=O)c4c(-c5ccccc5)cc5ccccn45)cc3)CC2)n1 [Example 73] :: < 1 µg/mL
O=C(Nc1ccc(N2CCN(c3cccc(CCO)n3)CC2)cc1)C(=O)c1c(-c2ccccc2)cc2ccccn12 [Example 88] :: < 1 µg/mL
Cc1cc(C)nc(N2CCC(O)(c3ccc(NC(=O)C(=O)c4c(-c5ccccc5)cc5ccccn45)cc3)CC2)c1 [Example 79] :: > 10 µg/mL
Cc1cc(C)nc(N2CCN(c3ccc(NC(=O)C(=O)c4c(C5CCOCC5)cc5ccccn45)cc3)CC2)c1 [Example 66] :: < 1 µg/mL
O=C(Nc1ccc(N2CCC(N3CCOCC3)CC2)cc1)C(=O)c1c(-c2ccccc2Cl)cc2ccccn12 [Example 26] :: 1 to 10 µg/mL
Cc1cc(C)nc(NCCN(C)c2ccc(NC(=O)C(=O)c3c(-c4ccccc4)cc4ccccn34)cc2)c1 [Example 69] :: < 1 µg/mL

Q: Consider the molecule shown here: Cc1cc(C)nc(OCCOc2ccc(NC(=O)C(=O)c3c(-c4ccccc4)cc4ccccn34)cc2)c1 [Example 65] What is its recorded MIC?
A: < 1 µg/mL

Q: Query (molecule): COCCN(C)c1ccc(N2CCN(c3ccc(NC(=O)C(=O)c4c(-c5ccccc5)cc5ccccn45)cc3)CC2)cn1 [Example 68] ; field requested: MIC
A: < 1 µg/mL

Q: # get_value(readout='MIC', item= Cc1cc(C)nc(N(C)CCNc2ccc(NC(=O)C(=O)c3c(-c4ccccc4)cc4ccccn34)cc2)c1 [Example 78] )
A: < 1 µg/mL

Q: // query MIC value for entry Cc1nccn1CCCOc1ccc(NC(=O)C(=O)c2c(-c3ccccc3)cc3ccccn23)cc1C(C)C [Example 20]
A: 1 to 10 µg/mL

Q: Requested field: MIC. Item: CC(C)c1cc(NC(=O)C(=O)c2c(-c3ccccc3)cc3ccccn23)ccc1C(=O)OCCn1ccnc1C(C)C [Example 13]
A: < 1 µg/mL

Q: MIC lookup needed for Cc1cc(C)nc(N2CCCN(c3ccc(NC(=O)C(=O)c4c(-c5ccccc5)cc5ccccn45)cc3)CC2)c1 [Example 54] , thanks.
A: < 1 µg/mL

###

// reported MIC for each item listed
system: Aspergillus terreus AT4; experiment: MIC (YAG medium); assay type: cell-based; details: Aspergillus terreus; YAG medium; MIC banded into grades; AT4; read-out: MIC A. terreus (grade)

Examples from the recorded data:
COCCOCCOc1cc(C)nc(N2CCN(c3ccc(NC(=O)C(=O)c4c(-c5ccccc5)cc5ccccn45)cc3)CC2)c1 [Example 76] :: < 1 µg/mL
CC(C)c1nccn1CCOC(=O)C(C)(C)c1ccc(NC(=O)C(=O)c2c(-c3ccccc3)cc3ccccn23)cc1 [Example 18] :: > 10 µg/mL
CN1/C(=N/c2ccc(NC(=O)C(=O)c3c(-c4ccccc4)cc4ccccn34)cc2)OCC1(C)C [Example 8] :: > 10 µg/mL
Cc1cc(C)nc(N2CCN(c3ccc(NC(=O)C(=O)c4c(C5CCCC5)cc5ccccn45)cc3)CC2)c1 [Example 47] :: < 1 µg/mL
Cc1cc(C)nc(N2CCN(c3ccc(NC(=O)C(=O)c4c(C5CC5)cc5ccccn45)cc3)CC2)c1 [Example 58] :: < 1 µg/mL
Cc1cc(C)nc(N2CCN(c3ccc(NC(=O)C(=O)c4c(-c5ccccc5)cc5ccc(F)cn45)cc3)CC2)c1 [Example 32] :: < 1 µg/mL
Cc1cc(C)nc(CCCCc2ccc(NC(=O)C(=O)c3c(-c4ccccc4)cc4ccccn34)cc2)c1 [Example 72] :: < 1 µg/mL
Cc1cc(C)nc(N2CCC(O)(c3ccc(NC(=O)C(=O)c4c(-c5ccccc5)cc5ccccn45)cc3)CC2)c1 [Example 79] :: > 10 µg/mL

Q: # get_value(readout='MIC', item= Cc1cc(C)nc(N2CCN(c3ccc(NC(=O)C(=O)c4c(-c5ccccc5)cc5ccccn45)cc3)CC2)n1 [Example 44] )
A: < 1 µg/mL

Q: Look up MIC for this compound: O=C(Nc1ccc(NCCOc2ccccn2)cc1)C(=O)c1c(-c2ccccc2)cc2ccccn12 [Example 90]
A: < 1 µg/mL

Q: State the recorded MIC for this entry: Cc1cc(C)nc(N2CCN(c3ccc(NC(=O)C(=O)c4c(-c5ccccc5)cc5ccccn45)cc3)CC2)c1 [Example 21]
A: < 1 µg/mL

FYI, the data here is from patent US20110183969A1.
